Exercise: state measured growth inhibition for each of the compounds provided.
experimental-protocol: NCI Yeast Anticancer Drug Screen. Data for the sgs1 mgt1 strain (AID 161);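 further: 0% = growth of cultures given vehicle only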
setup-conditions: S. cerevisiae sgs1 mgt1 strain, at 50.0 µM, stronger effect = higher value
Procedure: Growth inhibition of yeast strains with defined genetic alterations is measured as a screen for potential anti-cancer activity. Selected strains with alterations in DNA damage repair or cell cycle control were exposed to compounds and growth inhibition was measured relative to vehicle treated controls. The strain used in this assay is sgs1 mgt1
The panel holds about 79,000 compounds, 15% with a hit somewhere; the sample as a whole holds those more often.
Give bare numbers, in %.

Recorded growth inhibition, per entry:
Please report the measured growth inhibition for `COc1ccc2c(ccc[n+]2C)c1`
3.65

Quickly give me recorded growth inhibition for `Cc1onc(-c2c(F)cccc2Cl)c1-c1ncc(-c2ccc(Br)cc2)o1`
-9.75

Quickly give me recorded growth inhibition for `c1ccc(-c2ccc3ccccc3c2)cc1`
-3.3

Could you please provide reported growth inhibition for O=C(O)C1CSC(c2ccccc2)N1 (stereo not drawn) ? Thanks!
-4.35

Specify measured growth inhibition for `Clc1cccc(Cl)c1CSc1nc2ccccc2n2cccc12` .
5.2

// for each compound in input: emit growth inhibition
1. C=COC(=O)C(C)(C)C
2. CSCC[C@@H]1C(=O)N(C)[C@H](C(C)(C)C)N1C(=O)c1ccccc1
3. COc1cccc2c1Cc1ccccc1-2
4. CC(CO)(CO)C(=O)O
5. COc1ccc(Nc2cc(Cl)ccc2C(=O)O)cn1
6. Nc1nnc2cc(F)ccc2n1
7. CCCCCCCCCc1ccc(OC(C)=O)cc1
8. CC(C)N(C(=O)c1ccccc1)C(C)C

14.9
-7.05
13.3
-11.6
-6.95
-5.9
42.2
29.4

Dear colleague, could you send me growth inhibition for each of the items below? Thanks.
1. CCCCCCCCNC(=O)C(C)C
2. CC(=O)c1cccc(NS(=O)(=O)c2ccc(C)cc2)c1
3. Cc1cc(C)cc(OCC(=O)O)c1

1: -2.15; 2: -18.1; 3: -10.6

Provide growth inhibition for all items below, preserving their order.
1. COC1OC(C(O)C(O)CO)C(O)C(O)C1O (stereo not drawn)
2. CC(C)NC(=O)OCc1c(COC(=O)NC(C)C)c(-c2ccc(Cl)cc2)n2c1CCC2
3. CC(=O)c1cccc(N(C)S(=O)(=O)c2ccc(C)cc2)c1
4. O=C(CCl)Oc1ccc([N+](=O)[O-])cc1
5. CC(C)c1ccccc1NC(=O)N1CCC(C(C)C)CC1
6. NCCCN1CCCC1=O
7. CCN(Cc1ccc(Cl)c(Cl)c1)c1ccc2nc(N)nc(N)c2c1C
8. C=CCNC(=S)N/C=C(/C(=O)c1ccccc1)c1ccccc1

[11.8, -26.1, 21.8, 23.8, -29.8, -14.8, 50.9, -45.2]

Hey, quick one: what's growth inhibition for each of these?
1. COC(=O)C1=C(C)C(=O)CC1
2. COC1(OC)C2(Cl)C(Cl)=C(Cl)C1(Cl)C1COCC12 (stereo not drawn)
3. ClCc1cccc2c(CCl)cccc12
4. COc1ccc(C(=O)/C(=N/Nc2ccccc2)c2ccc(OC)cc2)cc1

1. 11.8
2. -40.2
3. 0.9
4. -1.25

----------
Assign growth inhibition to each entry below.
experimental-protocol: NCI Yeast Anticancer Drug Screen. Data for the cln2 rad14 strain (AID 165);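 further: 0% = growth equal to vehicle treated cultures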
setup-conditions: S. cerevisiae cln2 rad14 strain, at 50.0 µM, stronger effect = higher value
This is part of a sample that, as a whole, favours compounds with a hit. Of some 79,000 tested, about 15% had one in any assay.
Give bare numbers, in %.

Identify the reported growth inhibition for the following entry. COC1=C(OC)C(=O)C(SC/C=C(\C)CCCC(C)CCCC(C)CCCC(C)C)=CC1=O (configuration not stated)
16.6

Identify measured growth inhibition associated with `CC(C)c1ncc([N+](=O)[O-])n1C`
-30.1

Provide each entry's growth inhibition from the list below.
1. CCOC(=O)C1(N)CCCCC1
2. O=C1C=C[C@H](O)[C@@]2(CO)O[C@@H]12
3. CCC(=O)C1C(=O)c2ccccc2C1=O
4. O=C(c1cccc(C(=O)c2ccc3c4c(cccc24)C(=O)N(c2ccccc2)C3=O)c1)c1ccc2c3c(cccc13)C(=O)N(c1ccccc1)C2=O

1. -9.85
2. -6.1
3. -13.8
4. 12.1

Reference for the values: PubChem BioAssay (NCI)
